System: COLO 205 colon
Test: NCI tumour cell line growth inhibition, 48 h; in the data active means GI50 below about 0.43 µM; inactive means the rest
# valid calls are 1 = active, -1 = inactive; nothing else

// below: answered compounds
smiles-code | group-label
CC1(C)N=c2cc3c(cc2N1c1ccc(Cl)cc1)=Nc1ccccc1N3c1ccc(Cl)cc1 | -1
CCN(CC)CCn1c(=O)c2cc(OC)c(OC)cc2c2ccc3cc4c(cc3c21)OCO4 | 1
CCC[CH2][Sn]1([CH2]CCC)[O]CC[S]1 | -1

Ask: What is the recorded call for this compound in the test? CC1(C)CCc2c(c(N=Nc3ccccc3F)c3ccccc3c2O)O1
Result: -1

Ask: What is the recorded call for this compound in the test? O=C1c2ccccc2C(=O)c2c1oc1c2c(=O)[nH]c2ccc(Cl)cc21
Result: -1

Ask: What is the recorded call for this compound in the test? [Co].[O-]c1cccnc1C=Nc1ccccc1.[OH3+]
Result: -1

====

System: ACHN renal
Assay: NCI tumour cell line growth inhibition, 48 h
Measured TGI, listed per entry for reference.

Ask: Using known records, supply TGI for CC(=O)Nc1ccc(OC(C)=O)cc1
Result: 76 µM

Ask: Using known records, supply TGI for COc1ccc(-c2cc(=O)c3cc(Cl)ccc3[nH]2)cc1
Result: > 100 µM

Ask: Using known records, supply TGI for N#Cc1sc2c(c1OC(=O)c1ccc(Cl)cc1Cl)c(=O)n(-c1ccccc1)c(=S)n2-c1ccccc1
Result: > 100 µM

Ask: Using known records, supply TGI for C1=CC=C2NCCc3cccc(c3)CCNC3=CC=CC=CC3=NCCCCCCN=C2C=C1
Result: > 100 µM

Ask: Using known records, supply TGI for CC(=O)C1C(=O)C(C(C)=O)C2C3C=CC(C3)C12 (stereo unspecified)
Result: > 100 µM

Ask: Using known records, supply TGI for Cc1cccc2c(NCCN(C)C)c3cccc(C(=O)NCCN(C)C)c3nc12
Result: 4.33 µM

Ask: Using known records, supply TGI for Cc1nc(C)c(N2CCN(S(N)(=O)=O)CC2)c(=O)[nH]1
Result: > 100 µM

Ask: Using known records, supply TGI for COc1ccc2c(=O)c3c([nH]c2c1)OCC3=O
Result: > 100 µM

====

System: RXF 393 renal
Assay: NCI tumour cell line growth inhibition, 48 h; in the data active = GI50 below about 0.43 µM; inactive = the rest
# valid calls are active, inactive; nothing else

// below: answered compounds
compound | assayed-target | group-label
COc1ccc(-c2cc(-c3ccc(OC)cc3)nc(NCCCNc3ccnc4cc(Cl)ccc34)n2)cc1 | RXF 393 renal | inactive
COc1cc(NS(C)(=O)=O)ccc1Cc1c2ccccc2nc2ccccc12 | RXF 393 renal | active
CCCCC(OC(=O)c1ccc(N)cc1)C(=O)Nc1nc(CC(=O)OCC)cs1 (configuration not stated) | RXF 393 renal | inactive
CCN(CCO)CCCC(C)Nc1ccnc2cc(Cl)ccc12 (configuration not stated) | RXF 393 renal | inactive
CCCCc1n(Cc2ccc3ccccc3n2)cc[n+]1Cc1ccc2ccccc2n1 | RXF 393 renal | inactive

Ask: What is the recorded call for this compound in the test? CC(=O)Nc1ccc(OC(C)=O)cc1
Result: active

Ask: What is the recorded call for this compound in the test? FC(F)(F)c1cc(NC(=S)N2c3ccccc3-n3cccc3C2c2cccnc2)cc(C(F)(F)F)c1 (configuration not stated)
Result: inactive

Ask: What is the recorded call for this compound in the test? Cc1ccc2[nH]c(C(=O)NN3C(=O)C(C)SC34CCC(C)CC4)c(-c3ccccc3)c2c1 (configuration not stated)
Result: inactive

Ask: What is the recorded call for this compound in the test? COC(=O)C1=C(C(=O)ON)[C@@H]2C=C[C@@]1([C@@H](Cc1ccccc1)Nc1ccccc1)O2
Result: inactive

Ask: What is the recorded call for this compound in the test? C#CCOC(=O)/C=C/C(=O)Oc1ccc2c(C)cc(=O)oc2c1
Result: inactive

Ask: What is the recorded call for this compound in the test? CC(C)=Cc1cccc2[nH]c(O)c(N=Nc3ccc(S(N)(=O)=O)cc3)c12
Result: inactive

Ask: What is the recorded call for this compound in the test? C#Cc1cccc(NC(=O)c2cccc(NC(=O)CCl)c2)c1
Result: inactive

# credit: PubChem BioAssay (NCI)
